B1: TPR 5TU (parent)
chain: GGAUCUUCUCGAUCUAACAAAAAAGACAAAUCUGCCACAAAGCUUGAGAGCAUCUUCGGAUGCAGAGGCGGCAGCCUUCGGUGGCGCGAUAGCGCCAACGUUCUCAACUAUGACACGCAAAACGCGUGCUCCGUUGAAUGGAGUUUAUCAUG

Variants of: B1
Experiment: polymerase ribozyme fitness, log enrichment relative to wild type (log ratio); higher = more active; in vitro selection for triplet polymerase activity
This sample holds only a part of the variants without activity.
Let's look at some variants and their measured polymerase ribozyme fitness (log ratio).
property: polymerase ribozyme fitness (log ratio)

* G48A C51U | -1.05
* U56A G80U C99A A122C | -1.16
* A49G U56G G83C | -2.85
* C75U A137C | -3.47
* C18U A40C C57A G126U | -0.291
* G58U A91G | -2.46
* C54A G92U U135G | -4.08
* A3G A21C A60G C76A C85G | -0.977
* A40G C116G A120U | -1.72
* A16U A150G | -2.95
* C85G A119U | -3.69
* C95U A142U U145G | -2.47
* C27A A37U A91C | -4.17
* A52G U144A | -0.831
* U55A U144A | -0.497
* C93G A115G C131U | -3.48
* U102A G128U | -4.1
* C69A U144C | -1.07
* C5G A16G C35U C63A C85U | -1.82
* U55A G140A | -4
* G65A C105U | -0.804
* C51U U82A C95U | -1.29
* G81C C93U U101G | 0.439
* U55A A107G | -3.7
* A19U A21U G94A | -1.09
* A21U C57U C93G | -3.29
* U82A C129A | -2.19
* U56A C93U C116U | -1.11
* G46U G83U | -2.29
* U33C A52G G70A G92A A150G | -3.87
* A41G C54G G117U G124C | -1.19
* A89U A150U | 1.51
* A60U A150C | -3.39
* C57A A60G G74U | -4.12
* U56A C95U A98C | -0.392
* A23G G50U U146G | -3.73
* G25U G83A A119C | -2.78
* G48C C76U | -3.15
* A29G | -1.81
* C118A U144A | 0.0258
* A20U A40C | -0.959

Data credit: the RNAGym collection of RNA variant scans (doi:10.1073/pnas.2313332121)
